- Test system: 596521-263-R-J1-PDC complex spheroids, viability % of control
- procedure_details: Anticancer human tumor 596521-263-R-J1-PDC patient-derived soft tissue sarcoma cell line growth inhibition [GQUAD]
- measurement_conditions: second compound 0.316 µM; first compound 0.316 µM; stronger effect = lower value
# viability, T/C listing for each entry below
experimental_endpoint: viability, T/C (%)

[
  {
    "compound": "CC(C)n1c(=O)n(C)c2cnc3cc(F)c(-c4ccc(OCCCN5CCCCC5)nc4)cc3c21 + Cc1cnc(CNC(=O)c2c(=O)c3ccc(N4CCCN(C)CC4)nc3n3c2sc2ccccc23)cn1",
    "experimental_endpoint": "viability, T/C",
    "recorded_number": 63.5
  },
  {
    "compound": "O=c1[nH]cc(F)c(=O)[nH]1 + CN(C)c1ccc(Nc2c3ccc(NC(=O)CCN4CCCC4)cc3nc3cc(NC(=O)CCN4CCCC4)ccc23)cc1",
    "experimental_endpoint": "viability, T/C",
    "recorded_number": 95.4
  },
  {
    "compound": "Cn1ncnc1[C@H]1c2n[nH]c(=O)c3cc(F)cc(c23)N[C@@H]1c1ccc(F)cc1 + CN(C)c1ccc(Nc2c3ccc(NC(=O)CCN4CCCC4)cc3nc3cc(NC(=O)CCN4CCCC4)ccc23)cc1",
    "experimental_endpoint": "viability, T/C",
    "recorded_number": 80
  }
]

---

- Test system: 596521-263-R-J1-PDC complex spheroids, viability % of control
- procedure_details: Anticancer human tumor 596521-263-R-J1-PDC cell line growth inhibition [GQUAD]; active means viability on the fitted dose curve at most 10% of control; inactive means the rest;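 further: spheroids exposed to drugs for 7 days before viability reading; 100% = DMSO vehicle control viability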
- measurement_conditions: second compound 0.0316 µM; first compound 1 µM
Outcomes: yes (active), no (inactive)

[
  {
    "compound": "COc1ncnc(C2CC2)c1-c1ncc2cnn(Cc3ccc(-c4nc(C(F)(F)F)cn4C(C)C)cc3)c2n1 + CN(C)c1ccc(Nc2c3ccc(NC(=O)CCN4CCCC4)cc3nc3cc(NC(=O)CCN4CCCC4)ccc23)cc1",
    "group_label": "no"
  },
  {
    "compound": "CC1COCCN1c1cc(-c2ccnn2C)c2ccnc(-c3ccn[nH]3)c2n1 (stereo unspecified) + Cc1[nH]c2ccc(F)cc2c1-c1nc2c3cccnc3c3ncccc3c2[nH]1",
    "group_label": "no"
  },
  {
    "compound": "CCCS(=O)(=O)Nc1ccc(F)c(C(=O)c2c[nH]c3ncc(-c4ccc(Cl)cc4)cc23)c1F + Cc1cnc(CNC(=O)c2c(=O)c3ccc(N4CCCN(C)CC4)nc3n3c2sc2ccccc23)cn1",
    "group_label": "no"
  },
  {
    "compound": "C=CC(=O)N1CCN(c2nc(=O)n(-c3c(C)ccnc3C(C)C)c3nc(-c4c(O)cccc4F)c(F)cc23)C(C)C1 (stereo unspecified) + Cc1cnc(CNC(=O)c2c(=O)c3ccc(N4CCCN(C)CC4)nc3n3c2sc2ccccc23)cn1",
    "group_label": "no"
  },
  {
    "compound": "O=c1[nH]cc(F)c(=O)[nH]1 + Cc1cnc(CNC(=O)c2c(=O)c3ccc(N4CCCN(C)CC4)nc3n3c2sc2ccccc23)cn1",
    "group_label": "no"
  },
  {
    "compound": "O=c1[nH]cc(F)c(=O)[nH]1 + Cc1[nH]c2ccc(F)cc2c1-c1nc2c3cccnc3c3ncccc3c2[nH]1",
    "group_label": "no"
  },
  {
    "compound": "O=C(NO)c1cnc(N2CCN(S(=O)(=O)c3ccc4ccccc4c3)CC2)nc1 + CN(C)c1ccc(Nc2c3ccc(NC(=O)CCN4CCCC4)cc3nc3cc(NC(=O)CCN4CCCC4)ccc23)cc1",
    "group_label": "yes"
  },
  {
    "compound": "COc1cccc2c1C(=O)c1c(O)c3c(c(O)c1C2=O)CC(O)(C(=O)CO)CC3OC1CC(N)C(O)C(C)O1 (stereo unspecified) + Cc1[nH]c2ccc(F)cc2c1-c1nc2c3cccnc3c3ncccc3c2[nH]1",
    "group_label": "no"
  },
  {
    "compound": "CC(C)n1c(=O)n(C)c2cnc3cc(F)c(-c4ccc(OCCCN5CCCCC5)nc4)cc3c21 + Cc1[nH]c2ccc(F)cc2c1-c1nc2c3cccnc3c3ncccc3c2[nH]1",
    "group_label": "no"
  },
  {
    "compound": "COc1cc(C2c3cc4c(cc3C(OC3OC5COC(C)OC5C(O)C3O)C3COC(=O)C23)OCO4)cc(OC)c1O (stereo unspecified) + CN(C)c1ccc(Nc2c3ccc(NC(=O)CCN4CCCC4)cc3nc3cc(NC(=O)CCN4CCCC4)ccc23)cc1",
    "group_label": "no"
  },
  {
    "compound": "COc1ccc([C@@H](O)c2cc(-c3ncnc4cc(N5CCOCC5)ccc34)c(F)cc2Cl)nn1 + Cc1cnc(CNC(=O)c2c(=O)c3ccc(N4CCCN(C)CC4)nc3n3c2sc2ccccc23)cn1",
    "group_label": "no"
  }
]
